- ASSAY TARGET: T1, Recombinant Human DLL4 (R&D Systems Cat#1506-D4/CF) (human, UniProt Q9NR61 27-524)
- T1 construct: Bought recombinant protein; also called delta-like protein 4; rHuman DLL4
- PROCEDURE TEXT: ECL multispot (MSD) assay, antigen spotted on plate, 20 nM Fab;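 note: purified Fab bound to plate-spotted antigen for 1 h at 20 °C, labelled detection antibody added, ratio of antigen ECL signal to same-well blank, ratio ≥4 counted as binder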
RESULT TYPE: ECL signal/blank ratio (read-out not given)
Answer with the value's number alone.

For the binder Fab VH3-23_IGHD2-21*01>3_IGHJ6*01 H100E/S108P/Y113G T58A & V2-13_IGLJ2*01 (Fab, V domains shown, Tested as a Fab made in E. coli; also called EPG T58A) VH: EVQLLESGGGLVQPGGSLRLSCAASGFTFSSYAMSWVRQAPGKGLEWVSSISGSGGSAYYADSVKGRFTISRDNSKNTLYLQMNSLRAEDTAVYYCAKEEIVVVIAIPYYYYGYGMDVWGQGTLVTVSS VL: SSELTQDPAVSVALGQTVRITCQGDSLRSYYASWYQQKPGQAPVLVIYGKNNRPSGIPDRFSGSSSGNTASLTITGAQAEDEADYYCNSRDSSGNHLVVFGGGTKLTVL , what ECL signal/blank ratio (read-out not given) is on record?
2.3

The values you see were collected from patent US20120316071A1.
